The reported measurements were obtained from paper PMC5632138.

system tested: ETV4 Leu430Ala (UniProt P43268 1-484, L430A)
Sequence (P43268 whole entry L430A): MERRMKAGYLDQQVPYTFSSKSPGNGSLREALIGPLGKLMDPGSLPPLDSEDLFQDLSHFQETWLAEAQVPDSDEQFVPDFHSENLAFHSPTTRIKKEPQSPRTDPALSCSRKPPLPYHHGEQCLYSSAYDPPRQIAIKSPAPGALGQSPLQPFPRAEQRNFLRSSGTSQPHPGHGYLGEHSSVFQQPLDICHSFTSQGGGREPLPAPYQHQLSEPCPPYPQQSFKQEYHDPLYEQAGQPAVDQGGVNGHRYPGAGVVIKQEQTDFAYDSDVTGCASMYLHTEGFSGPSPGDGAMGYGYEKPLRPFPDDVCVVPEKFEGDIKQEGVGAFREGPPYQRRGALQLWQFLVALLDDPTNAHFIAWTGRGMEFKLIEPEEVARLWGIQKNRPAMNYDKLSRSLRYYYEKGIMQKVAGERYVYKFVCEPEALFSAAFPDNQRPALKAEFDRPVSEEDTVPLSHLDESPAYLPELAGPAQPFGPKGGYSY
assay: EMSA
value kind: Kd (nM)
Write the answer as a number in nM, unit excluded.

## Task What does the record list as Kd for 27-bp consensus ETS duplex (dsDNA) DNA 1: TCGACGGCCAAGCCGGAAGTGAGTGCC DNA 2: TCGAGGCACTCACTTCCGGCTTGGCCG ?
## Result 1.9
